B1: TPR 5TU (parent)
chain: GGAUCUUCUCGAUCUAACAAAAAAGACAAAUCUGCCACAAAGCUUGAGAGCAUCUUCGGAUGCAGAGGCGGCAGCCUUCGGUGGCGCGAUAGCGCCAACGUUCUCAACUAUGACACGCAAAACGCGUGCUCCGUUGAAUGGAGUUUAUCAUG

Variants of: B1
protocol_details: polymerase ribozyme fitness, log enrichment relative to wild type (log ratio); higher = more active; in vitro selection for triplet polymerase activity
Fewer inactive variants are shown than the library holds.
parameter: polymerase ribozyme fitness (log ratio)

Below are worked cases with known answers.
>>> measured_value("A49G G84A G152A")
-2.8
>>> measured_value("C14A A21U G59U G133C")
-3.06
>>> measured_value("G81U C95U")
-1.63
>>> measured_value("A21C A22U G86U U102C C116U A122G A138U")
"≤ -4.2"
>>> measured_value("C10A G11A A39U C93A G141U")
"≤ -4.2"

response.value for A21C C57A C85G U130G (field: polymerase ribozyme fitness (log ratio)) = -4

response.value for A21C C43U C79G G83U C87G A91G A119U G141A (field: polymerase ribozyme fitness (log ratio)) = ≤ -4.2

response.value for A97G C99G (field: polymerase ribozyme fitness (log ratio)) = -0.579
